Below, each entry is listed alongside its reported ka.
target_under_test: T1, human ARG2 (Homo sapiens, UniProt P78540, E275H/R327K)
T1 construct: His10 (after a GGG linker) (C); made in house; host or cells: E. coli BL21 (DE3)
T1 sequence (P78540 23-354 E275H/R327K): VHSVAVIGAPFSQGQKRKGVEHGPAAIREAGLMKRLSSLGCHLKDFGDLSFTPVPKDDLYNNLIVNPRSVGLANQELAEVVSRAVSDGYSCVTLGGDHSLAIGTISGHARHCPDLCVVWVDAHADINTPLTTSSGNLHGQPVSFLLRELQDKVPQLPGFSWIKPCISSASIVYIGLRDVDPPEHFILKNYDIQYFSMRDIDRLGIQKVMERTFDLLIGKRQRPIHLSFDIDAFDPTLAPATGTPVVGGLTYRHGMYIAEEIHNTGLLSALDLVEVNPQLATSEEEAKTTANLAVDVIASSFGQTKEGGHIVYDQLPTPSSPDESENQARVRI
method: Bio-Layer Interferometry (OctetRED) binding kinetics, human ARG2
measurement_context: Fab as analyte; streptavidin capture; analyte 1.8 to 120 nM; affinity-matured antibodies
Provide only the numeric value, understood in M⁻¹ s⁻¹.

molecule	recorded_endpoint	reading
C0021142 Fab (antibody, V domains shown) VH: EVQLLESGGGLVQPGGSLRLSCAASGFTFSSYAMSWVRQAPGKGLEWVSAHTHSPGSTYYADSVKGRFTISRDNSKNTLYLQMNSLRAEDTAVYYCARLRADLGLYMDLWGRGTLVTVSS VL: QSVLTQPPSVSAAPGQKVTISCSGSSSNIGNHYVSWYQQLPGTAPKLLIYDNSERPSGIPDRFSGSKSGTSATLGITGLQTGDEADYYCGTWDSSLSALVFGGGTKLTVL	ka	399000
C0021032 Fab (antibody, V domains shown) VH: EVQLLESGGGLVQPGGSLRLSCAASGFTFSSYAMSWVRQAPGKGLEWVSAYGYGIGSTYYADSVKGRFTISRDNSKNTLYLQMNSLRAEDTAVYYCARLRADLGLYMDLWGRGTLVTVSS VL: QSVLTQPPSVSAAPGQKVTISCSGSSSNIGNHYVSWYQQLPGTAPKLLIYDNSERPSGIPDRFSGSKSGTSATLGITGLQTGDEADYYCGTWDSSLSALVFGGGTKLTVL	ka	427000
C0021061: anti-ARG2 antibody, first generation lead, VH SEQ ID NO: 62, VL SEQ ID NO: 67 (antibody, listed as Homo sapiens, V domains shown, C0021061) VH: EVQLLESGGGLVQPGGSLRLSCAASGFTFSSYAMSWVRQAPGKGLEWVSAKPTDAGSTYYADSVKGRFTISRDNSKNTLYLQMNSLRAEDTAVYYCARLRADLGLYMDLWGRGTLVTVSS VL: QSVLTQPPSVSAAPGQKVTISCSGSSSNIGNHYVSWYQQLPGTAPKLLIYNTVYPKSGIPDRFSGSKSGTSATLGITGLQTGDEADYYCGTWDSSLSALVFGGGTKLTVL	ka	271000

Ask | Supply measured ka of C0021096 Fab (antibody, V domains shown) VH: EVQLLESGGGLVQPGGSLRLSCAASGFTFSSYAMSWVRQAPGKGLEWVSAISGYSGYYADSVKGRFTISRDNSKNTLYLQMNSLRAEDTAVYYCARLRADLGLYMDLWGRGTLVTVSS VL: QSVLTQPPSVSAAPGQKVTISCSGSSSNIGNHYVSWYQQLPGTAPKLLIYNTERRMSGIPDRFSGSKSGTSATLGITGLQTGDEADYYCGTWDSSLSALVFGGGTKLTVL in your reply.
Reply | 441000

Ask | Supply measured ka of C0021101 Fab (antibody, V domains shown) VH: EVQLLESGGGLVQPGGSLRLSCAASGFTFSSYAMSWVRQAPGKGPEWVSAISGFSPYYADSVKGRFTISRDNSKNTLYLQMNSLRAEDTAVYYCARLRADLGLYMDLWGRGTLVTVSS VL: QSVLTQPPSVSAAPGQKVTISCSGSSSNIGNHYVSWYQQLPGTAPKLLIYNNRSPTSGIPDRFSGSKSGTSATLGITGLQTGDEADYYCGTWDSSLSALVFGGGTKLTVL in your reply.
Reply | 314000
